- assay target: serum amyloid P component (SAP) (Homo sapiens)
- Sequence (P02743 20-223): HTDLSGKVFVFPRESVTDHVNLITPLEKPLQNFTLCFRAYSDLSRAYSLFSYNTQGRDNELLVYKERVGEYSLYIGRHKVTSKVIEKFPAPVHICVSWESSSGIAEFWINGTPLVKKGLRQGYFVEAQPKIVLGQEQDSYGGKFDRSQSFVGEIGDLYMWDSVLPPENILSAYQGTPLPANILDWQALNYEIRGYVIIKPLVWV
- experiment notes: Inhibition of SAP binding to amyloid fibrils in vitro
- condition parameters: in vitro inhibition of binding of SAP to amyloid fibrils, protocol of EP 0915088 page 10; read-out: IC50
- Procedure: A method for screening and testing inhibitors of serum amyloid P component (SAP) binding to amyloid fibrils in vitro was devised and used in collaboration with F Hoffmann-La Roche Ltd to identify a suitable lead molecule for drug development. A library of candidate compounds was screened accordingly. […] Further studies determined that each of the following bis-D-Proline compounds were tested for their ability to deplete SAP in vivo as described above. […]
observable: IC50
Show the value, then the unit it is measured in.

Worked examples, 3 molecules total:
[[record]]
molecule_smiles = "Cc1c(OCC(=O)N2CCC[C@@H]2C(=O)O)cccc1OCC(=O)N1CCC[C@@H]1C(=O)O"
observed_result = "0.5 µM"

[[record]]
molecule_smiles = "O=C(O)[C@H]1CCCN1C(=O)COc1ccccc1OCC(=O)N1CCC[C@@H]1C(=O)O"
observed_result = "0.4 µM"

[[record]]
molecule_smiles = "O=C(O)[C@H]1CCCN1C(=O)c1ccc(C(=O)N2CCC[C@@H]2C(=O)O)cc1"
observed_result = "0.7 µM"


Q: Annotate the molecule "O=C(O)[C@H]1CCCN1C(=O)Cc1ccc(CC(=O)N2CCC[C@@H]2C(=O)O)cc1" with its measured IC50.
A: 0.35 µM

Q: Consider the molecule "O=C(O)[C@H]1CCCN1C(=O)COc1ccc(OCC(=O)N2CCC[C@@H]2C(=O)O)cc1" and give its recorded IC50.
A: 0.3 µM

Q: State its IC50 for this molecule: "O=C(O)[C@H]1CCCN1C(=O)Cc1cccc(CC(=O)N2CCC[C@@H]2C(=O)O)c1"
A: 0.7 µM

// provenance: patent US8173694B2
